Where do the numbers come from? From the Deep4Chem optical property database.

- experiment-notes: photoluminescence quantum yield (fraction); solvent given as SMILES
- test-context: in CN(C)C=O
Entries annotated with measured photoluminescence quantum yield
Please give the numeric answer without any surrounding text.

[[record]]
structure_string = "c1ccc(-c2cc(-c3ccc(-c4nc(-c5ccccn5)c(-c5ccccn5)[nH]4)cc3)cc(-c3ccccn3)n2)nc1"
reported_metric = "photoluminescence quantum yield"
reported = 0.135


Name the recorded photoluminescence quantum yield of the item `Cc1ccc2[nH]c(-c3ccc(-c4ccc(-c5ccc(-c6nc7cc(C)ccc7[nH]6)cc5)cc4)cc3)nc2c1` in your answer. 0.94

Name the recorded photoluminescence quantum yield of the item `F[B-]1(F)OC(c2ccccc2)=Nc2sc(-c3ccccc3)n[n+]21` in your answer. 0.01
